Target: CCDC6-RET (Homo sapiens, UniProt P07949+Q16204+Q96SW2)
Construct: CCDC6 (natural N-terminal fusion partner, UniProt Q16204); endogenous in cells; host or cells: TPC-1 (parental, papillary thyroid carcinoma)
Sequence (Q16204+P07949 fused): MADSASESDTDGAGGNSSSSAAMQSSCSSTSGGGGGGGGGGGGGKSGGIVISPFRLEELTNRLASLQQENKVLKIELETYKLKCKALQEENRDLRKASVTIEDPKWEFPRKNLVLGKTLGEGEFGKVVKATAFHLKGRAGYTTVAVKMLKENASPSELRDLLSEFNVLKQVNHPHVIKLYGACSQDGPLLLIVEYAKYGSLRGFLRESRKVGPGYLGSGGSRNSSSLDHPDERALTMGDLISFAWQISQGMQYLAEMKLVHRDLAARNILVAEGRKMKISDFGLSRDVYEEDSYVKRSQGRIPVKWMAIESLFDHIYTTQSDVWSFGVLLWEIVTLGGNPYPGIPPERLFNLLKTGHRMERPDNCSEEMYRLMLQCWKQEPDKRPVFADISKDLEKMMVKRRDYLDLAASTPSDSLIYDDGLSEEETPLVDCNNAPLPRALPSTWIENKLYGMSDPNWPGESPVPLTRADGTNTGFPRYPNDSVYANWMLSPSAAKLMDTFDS
Sequence (Q96SW2 whole entry, the tested form may be a part): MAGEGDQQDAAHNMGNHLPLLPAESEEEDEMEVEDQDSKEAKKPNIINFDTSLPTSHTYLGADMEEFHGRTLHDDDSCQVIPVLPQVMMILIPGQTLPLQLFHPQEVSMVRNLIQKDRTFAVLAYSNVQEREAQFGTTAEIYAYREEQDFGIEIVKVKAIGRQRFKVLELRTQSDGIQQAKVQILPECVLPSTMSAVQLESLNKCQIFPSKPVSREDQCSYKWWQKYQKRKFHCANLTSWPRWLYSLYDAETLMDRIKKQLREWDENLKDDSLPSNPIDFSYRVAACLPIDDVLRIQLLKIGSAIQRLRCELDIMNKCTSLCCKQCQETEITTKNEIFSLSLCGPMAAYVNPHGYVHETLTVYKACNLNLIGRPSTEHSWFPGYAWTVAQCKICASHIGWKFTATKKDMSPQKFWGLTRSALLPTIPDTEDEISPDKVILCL
Sequence (Q16531 whole entry partner, the tested form may be a part): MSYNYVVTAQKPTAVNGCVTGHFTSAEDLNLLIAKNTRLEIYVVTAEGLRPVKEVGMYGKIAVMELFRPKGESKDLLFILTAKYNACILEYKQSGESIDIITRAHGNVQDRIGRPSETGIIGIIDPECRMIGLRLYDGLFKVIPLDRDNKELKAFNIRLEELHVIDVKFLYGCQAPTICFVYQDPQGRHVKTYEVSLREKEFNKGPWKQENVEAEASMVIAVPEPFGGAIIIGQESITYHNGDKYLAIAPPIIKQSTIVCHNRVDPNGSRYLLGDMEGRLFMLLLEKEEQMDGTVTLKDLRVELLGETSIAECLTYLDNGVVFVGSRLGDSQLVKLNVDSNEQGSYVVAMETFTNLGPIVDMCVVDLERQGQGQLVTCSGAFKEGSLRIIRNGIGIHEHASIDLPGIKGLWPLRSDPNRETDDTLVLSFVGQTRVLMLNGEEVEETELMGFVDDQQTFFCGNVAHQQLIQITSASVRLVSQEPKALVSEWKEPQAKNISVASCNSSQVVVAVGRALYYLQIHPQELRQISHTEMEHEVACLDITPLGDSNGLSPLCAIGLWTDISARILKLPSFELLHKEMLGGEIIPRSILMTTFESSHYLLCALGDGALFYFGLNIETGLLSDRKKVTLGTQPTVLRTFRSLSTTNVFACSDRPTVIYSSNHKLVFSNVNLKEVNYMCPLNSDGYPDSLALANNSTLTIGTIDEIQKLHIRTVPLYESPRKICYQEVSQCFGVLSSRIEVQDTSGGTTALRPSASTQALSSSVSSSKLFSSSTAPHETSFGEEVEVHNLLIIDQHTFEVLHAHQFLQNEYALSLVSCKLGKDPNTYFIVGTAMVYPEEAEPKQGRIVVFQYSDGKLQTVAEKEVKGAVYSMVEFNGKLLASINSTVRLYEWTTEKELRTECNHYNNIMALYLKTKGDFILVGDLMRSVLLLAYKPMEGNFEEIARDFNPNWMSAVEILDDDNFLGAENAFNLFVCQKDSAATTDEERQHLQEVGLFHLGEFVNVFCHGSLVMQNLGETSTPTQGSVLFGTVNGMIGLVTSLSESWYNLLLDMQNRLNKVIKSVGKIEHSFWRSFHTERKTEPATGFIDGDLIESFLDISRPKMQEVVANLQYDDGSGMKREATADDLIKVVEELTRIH
Assay: Cellular RET degradation, AlphaLISA, TPC-1 cell line
Assay type: cell-based
Settings: TPC1, human, 24 h, read-out: Cell Density TPC-1/CCDC6-RET Ymax %
Record form. Attribute: Dmax. Fill in for each entry.

Examples from the recorded data:
Compound	Target System	Property Name	Reported Value
CCOc1cc(-c2ccc(N3CCC(NC(=O)c4cc(F)ccc4F)(C(=O)NCCCCCCN4CCN(c5ccc6c(c5)CN(C5CCC(=O)NC5=O)C6=O)CC4)CC3)nc2)c2c(C#N)cnn2c1 (stereo not drawn) [Example 155]	CCDC6-RET (Homo sapiens, UniProt P07949+Q16204+Q96SW2)	Dmax	60 to 90%
CCOc1cc(-c2ccc(N3CCC(Cc4ccccc4)(NC(=O)N4CCC(N5CCC(c6ccc7c(c6)C(=O)N(C6CCC(=O)NC6=O)C7)CC5)CC4)CC3)nc2)c2c(C#N)cnn2c1 (stereo not drawn) [Example 56]	CCDC6-RET (Homo sapiens, UniProt P07949+Q16204+Q96SW2)	Dmax	60 to 90%

Let us examine a further case.
Field Dmax (entry CCOc1cc(-c2ccc(N3CCC(CN4CCN(C(=O)CCCCN5CCN(c6ccc7c(N8CCC(=O)NC8=O)nn(C)c7c6)CC5)CC4)(NC(=O)c4cc(F)ccc4F)CC3)nc2)c2c(C#N)cnn2c1 [Example 40] ) reads > 90%

----------
What Dmax was measured for each of the following?
Target: CCDC6-RET (Homo sapiens, UniProt P07949+Q16204+Q96SW2)
Construct: CCDC6 (natural N-terminal fusion partner, UniProt Q16204); endogenous in cells; host or cells: TPC-1 (parental, papillary thyroid carcinoma)
Experiment: Cellular RET degradation, AlphaLISA, TPC-1 cell line
Assay type: cell-based
Details: TPC1, human, 24 h, read-out: Cell Density TPC-1/CCDC6-RET Ymax %

Some entries whose results are on file:
Compound	Dmax
CCOc1cc(-c2ccc(N3CCC(CN4CCN(C(=O)CCCCCCNc5cccc(NC6CCC(=O)NC6=O)c5)CC4)(NC(=O)c4cc(F)ccc4F)CC3)nc2)c2c(C#N)cnn2c1 (centres unmarked)	60 to 90%
CCOc1cc(-c2ccc(N3CCC(CN4CCN(C(=O)CCCCN5CCN(c6ccc7c(c6)C(=O)N(C6CCC(=O)NC6=O)C7)CC5)CC4)(NC(=O)c4cc(F)ccc4F)CC3)nc2)c2c(C#N)cnn2c1 (centres unmarked)	> 90%
CCOc1cc(-c2ccc(N3CCC(CN4CCN(C(=O)C5CC6(C5)CC(N5CCC(c7ccc8c(c7)CN(C7CCC(=O)NC7=O)C8=O)CC5)C6)CC4)(NC(=O)c4cc(F)ccc4F)CC3)nc2)c2c(C#N)cnn2c1 (centres unmarked)	> 90%
CCOc1cc(-c2ccc(N3CCC(CN4CCN(C5CC6(CC(C(=O)N7CCN(c8ccc9c(c8)CN(C8CCC(=O)NC8=O)C9=O)CC7)C6)C5)CC4)(NC(=O)c4cc(F)ccc4F)CC3)nc2)c2c(C#N)cnn2c1 (centres unmarked)	60 to 90%

Next, consider the following compound.
Memo: CCOc1cc(-c2ccc(N3CCC(CN4CCN(C(=O)CCN5CC(Oc6ccc7c(c6)CN(C6CCC(=O)NC6=O)C7=O)C5)CC4)(NC(=O)c4cc(F)ccc4F)CC3)nc2)c2c(C#N)cnn2c1 (centres unmarked) , reported Dmax: > 90%

----------
Target: CCDC6-RET (Homo sapiens, UniProt P07949+Q16204+Q96SW2)
Construct: CCDC6 (natural N-terminal fusion partner, UniProt Q16204); endogenous in cells; host or cells: TPC-1 (parental, papillary thyroid carcinoma)
Test: Cellular RET degradation, AlphaLISA, TPC-1 cell line
Assay type: cell-based
Details: read-out: Cell Density TPC-1/CCDC6-RET DC50; half-maximal degradation concentration; TPC-1 (CCDC6-RET), 24 hrs
Property Name: DC50

Batch request: DC50 for each of the following compounds.
1. CCOc1cc(-c2ccc(N3CCC(CN4CCC5(CCC(CC(=O)N6CCC(c7ccc8c(c7)CN(C7CCC(=O)NC7=O)C8=O)CC6)CC5)CC4)(NC(=O)c4cc(F)ccc4F)CC3)nc2)c2c(C#N)cnn2c1 (stereo not drawn)
2. CCOc1cc(-c2ccc(N3CCC(CN4CCN(C(=O)CCCCN5CCN(c6ccc7c(c6)C(=O)N(C6CCC(=O)NC6=O)C7)CC5)CC4)(NC(=O)c4cc(F)ccc4F)CC3)nc2)c2c(C#N)cnn2c1 (stereo not drawn)
3. CCOc1cc(-c2ccc(N3CCC(CN4CCN(C(=O)CCCN5CCN(c6ccc7c(c6)CN(C6CCC(=O)NC6=O)C7=O)CC5)CC4)(NC(=O)c4cc(F)ccc4F)CC3)nc2)c2c(C#N)cnn2c1 (stereo not drawn)

Marked response:
2 to 10 nM
< 2 nM
2 to 10 nM

----------
Please go through the items and note down their DC50.
Biological target: CCDC6-RET (Homo sapiens, UniProt P07949+Q16204+Q96SW2)
Construct: CCDC6 (natural N-terminal fusion partner, UniProt Q16204); endogenous in cells; host or cells: TPC-1 (parental, papillary thyroid carcinoma)
Test: Cellular RET degradation, AlphaLISA, TPC-1 cell line
Format: cell-based
Conditions: read-out: Cell Density TPC-1/CCDC6-RET DC50; half-maximal degradation concentration; TPC-1 (CCDC6-RET), 24 hrs

Compound	Target System	DC50
CCOc1cc(-c2ccc(N3CCC(CN(C)C(=O)CCCCCCN4CCC(c5ccc6c(c5)C(=O)N(C5CCC(=O)NC5=O)C6)CC4)(NC(=O)c4cc(F)ccc4F)CC3)nc2)c2c(C#N)cnn2c1 (stereo not shown)	CCDC6-RET (Homo sapiens, UniProt P07949+Q16204+Q96SW2)	10 to 100 nM
CCOc1cc(-c2ccc(N3CCC(CN4CCN(C(=O)CCN5CCC(c6ccc7c(c6)C(=O)N(C6CCC(=O)NC6=O)C7)CC5)CC4)(C(=O)NC(C)C)CC3)nc2)c2c(C#N)cnn2c1 (stereo not shown)	CCDC6-RET (Homo sapiens, UniProt P07949+Q16204+Q96SW2)	10 to 100 nM
CCOc1cc(-c2ccc(N3CCC(NC(=O)c4cc(F)ccc4F)(C(=O)NCCCCCCN4CCC(c5ccc6c(c5)C(=O)N(C5CCC(=O)NC5=O)C6)CC4)CC3)nc2)c2c(C#N)cnn2c1 (stereo not shown)	CCDC6-RET (Homo sapiens, UniProt P07949+Q16204+Q96SW2)	2 to 10 nM
CCOc1cc(-c2ccc(N3CCC(CN4CCC5(CC4)CCN(C(=O)Cc4ccc6c(c4)CN(C4CCC(=O)NC4=O)C6=O)CC5)(NC(=O)c4cc(F)ccc4F)CC3)nc2)c2c(C#N)cnn2c1 (stereo not shown)	CCDC6-RET (Homo sapiens, UniProt P07949+Q16204+Q96SW2)	2 to 10 nM
CCOc1cc(-c2ccc(N3CCC(NC(=O)c4cc(F)ccc4F)(C(=O)NCCN4CCC(c5ccc6c(c5)CN(C5CCC(=O)NC5=O)C6=O)CC4)CC3)nc2)c2c(C#N)cnn2c1 (stereo not shown)	CCDC6-RET (Homo sapiens, UniProt P07949+Q16204+Q96SW2)	2 to 10 nM

Required: DC50, one value per compound below.
1. CCOc1cc(-c2ccc(N3CCC(NC(=O)c4cc(F)ccc4F)(C(=O)NCCCCN4CCN(c5ccc6c(c5)C(=O)N(C5CCC(=O)NC5=O)C6)CC4)CC3)nc2)c2c(C#N)cnn2c1 (stereo not shown)
2. CCOc1cc(-c2ccc(N3CCC(CN4CCN(C(=O)CCCCCCCCCCCCNC(=O)COc5cccc6c5CN(C5CCC(=O)NC5=O)C6=O)CC4)(NC(=O)c4cc(F)ccc4F)CC3)nc2)c2c(C#N)cnn2c1 (stereo not shown)
3. CCOc1cc(-c2ccc(N3CCC(C)(CN4CCN(C(=O)CCN5CCC(c6ccc7c(c6)CN(C6CCC(=O)NC6=O)C7=O)CC5)CC4)CC3)nc2)c2c(C#N)cnn2c1 (stereo not shown)

Marked response:
2 to 10 nM
10 to 100 nM
100 to 2000 nM

Please give DC50 for each item listed below.
1. CCOc1cc(-c2ccc(N3CCC(CN4CCN(C5CN(C(=O)c6ccc7c(c6)CN(C6CCC(=O)NC6=O)C7=O)C5)CC4)(NC(=O)c4cc(F)ccc4F)CC3)nc2)c2c(C#N)cnn2c1 (stereo not shown)
2. CCOc1cc(-c2ccc(N3CCC(CN4CCN(C(=O)CCCCCCNC(=O)COc5cccc6c5CN(C5CCC(=O)NC5=O)C6=O)CC4)(NC(=O)c4cc(F)ccc4F)CC3)nc2)c2c(C#N)cnn2c1 (stereo not shown)

Marked response:
2 to 10 nM
2 to 10 nM

----------
Molecular target: CCDC6-RET (Homo sapiens, UniProt P07949+Q16204+Q96SW2)
Construct: CCDC6 (natural N-terminal fusion partner, UniProt Q16204); endogenous in cells; host or cells: TPC-1 (parental, papillary thyroid carcinoma)
Assay: Cellular RET degradation, AlphaLISA, TPC-1 cell line
Format: cell-based
Conditions: read-out: Cell Density TPC-1/CCDC6-RET DC50; half-maximal degradation concentration; TPC-1 (CCDC6-RET), 24 hrs
For each entry below, report its DC50 value.

// for each molecule below, give its DC50
1. CCOc1cc(-c2ccc(N3CCC(CN4CCN(CCC(=O)N5CCC6(CC5)CCN(c5ccc7c(c5)CN(C5CCC(=O)NC5=O)C7=O)CC6)CC4)(NC(=O)c4cc(F)ccc4F)CC3)nc2)c2c(C#N)cnn2c1 (stereo not shown) [Example 90]
2. CCOc1cc(-c2ccc(N3CCC(CN(C(=O)CCN4CCN(c5ccc6c(c5)C(=O)N(C5CCC(=O)NC5=O)C6)CC4)C(C)C)(NC(=O)c4cc(F)ccc4F)CC3)nc2)c2c(C#N)cnn2c1 (stereo not shown) [Example 167]
3. CCOc1cc(-c2ccc(N3CCC(COCCN4CCN(C(=O)CCCCN5CCN(c6ccc7c(c6)CN(C6CCC(=O)NC6=O)C7=O)CC5)CC4)(NC(=O)c4cc(F)ccc4F)CC3)nc2)c2c(C#N)cnn2c1 (stereo not shown) [Example 35]
4. CCOc1cc(-c2ccc(N3CCC(NC(=O)c4cc(F)ccc4F)(C(=O)NCCN4CCN(c5ccc6c(c5)C(=O)N(C5CCC(=O)NC5=O)C6)CC4)CC3)nc2)c2c(C#N)cnn2c1 (stereo not shown) [Example 158]
5. CCOc1cc(-c2ccc(N3CCC(CN4CCN(C(=O)CCN5CCN(c6ccc7c(c6)C(=O)N(C6CCC(=O)NC6=O)C7)CC5)CC4)(NC(=O)c4cc(F)ccc4F)CC3)nc2)c2c(C#N)cnn2c1 (stereo not shown) [Example 12]
6. CCOc1cc(-c2ccc(N3CCC(CN4CCN(C(=O)CCN5CCC(c6ccc7c(c6)C(=O)N(C6CCC(=O)NC6=O)C7)CC5)CC4)(NC(=O)C4CC4)CC3)nc2)c2c(C#N)cnn2c1 (stereo not shown) [Example 9]
7. CCOc1cc(-c2ccc(N3CCC(CN4CCN(C(=O)CCCCCCN5CCN(c6ccc7c(c6)CN(C6CCC(=O)NC6=O)C7=O)CC5)CC4)(NC(=O)CC(C)C)CC3)nc2)c2c(C#N)cnn2c1 (stereo not shown) [Example 3]
8. CCOc1cc(-c2ccc(N3CCC(COCC(=O)NCCCCCCN4CCN(c5ccc6c(c5)CN(C5CCC(=O)NC5=O)C6=O)CC4)(NC(=O)c4cc(F)ccc4F)CC3)nc2)c2c(C#N)cnn2c1 (stereo not shown) [Example 38]

Marked response:
1: 10 to 100 nM; 2: 2 to 10 nM; 3: 10 to 100 nM; 4: < 2 nM; 5: < 2 nM; 6: 2 to 10 nM; 7: 2 to 10 nM; 8: < 2 nM

// each listed molecule needs a value for DC50
1. CCOc1cc(-c2ccc(N3CCC(Cc4ccccc4)(NC(=O)C4CCN(C(=O)CCN5CCC(c6ccc7c(c6)CN(C6CCC(=O)NC6=O)C7=O)CC5)CC4)CC3)nc2)c2c(C#N)cnn2c1 (stereo not shown) [Example 66]
2. CCOc1cc(-c2ccc(N3CCC(CN4CCN(C(=O)C5CC6(C5)CC(C(=O)N5CCN(c7ccc8c(c7)CN(C7CCC(=O)NC7=O)C8=O)CC5)C6)CC4)(NC(=O)c4cc(F)ccc4F)CC3)nc2)c2c(C#N)cnn2c1 (stereo not shown) [Example 85]

Marked response:
["< 2 nM", "< 2 nM"]

Source listed as patent US20260356830A1.
